These data points were gathered from ChEMBL document CHEMBL1139557.

assay: Bioavailability in rat; format: ADME, organism-based; details: in vivo
metric_name: bioavailability (%)
Supply the numeric figure in %, leaving out any unit text.

compound | bioavailability, %
CCC1(c2cccc(OC(=O)c3ccccc3N)c2)CCCCN(C)C1 (configuration not stated) | 101

The reported value for CCC1(c2cccc(OC(=O)c3ccccc3)c2)CCCCN(C)C1 (configuration not stated) in terms of bioavailability is 58.1

###

assay: Bioavailability in rat; assay type: ADME, organism-based; settings: in vivo
metric_name: bioavailability (%)
Supply the numeric figure in %, leaving out any unit text.

compound | bioavailability [%]
CCC1(c2cccc(OC(=O)c3ccccc3N)c2)CCCCN(C)C1 (configuration not stated) | 81.9

Field: next compound
The reported value for CCC1(c2cccc(OC(=O)c3ccccc3)c2)CCCCN(C)C1 (configuration not stated) in terms of bioavailability is 81.6
